# assayed_system: TRPML1 (Homo sapiens)
# Sequence (Q9GZU1 17-572 limits assumed): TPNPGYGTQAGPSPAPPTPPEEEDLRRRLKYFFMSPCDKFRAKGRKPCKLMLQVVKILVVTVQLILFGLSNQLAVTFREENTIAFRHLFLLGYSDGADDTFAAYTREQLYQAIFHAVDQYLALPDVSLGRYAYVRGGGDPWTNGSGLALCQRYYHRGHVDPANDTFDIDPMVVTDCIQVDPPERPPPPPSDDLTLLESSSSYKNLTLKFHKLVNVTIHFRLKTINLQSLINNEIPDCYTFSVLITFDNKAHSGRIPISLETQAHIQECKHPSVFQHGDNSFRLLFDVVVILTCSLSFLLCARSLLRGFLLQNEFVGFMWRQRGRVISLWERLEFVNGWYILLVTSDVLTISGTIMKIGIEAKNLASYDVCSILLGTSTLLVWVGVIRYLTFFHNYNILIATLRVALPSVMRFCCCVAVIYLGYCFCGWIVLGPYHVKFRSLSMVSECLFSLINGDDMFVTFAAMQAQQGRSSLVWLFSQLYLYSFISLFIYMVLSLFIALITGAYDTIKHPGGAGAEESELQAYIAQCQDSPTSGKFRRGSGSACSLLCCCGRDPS
# test: Calcium flux in HEK293 overexpressing TRPML1 plasma membrane variant (FLIPR, Calcium 6 dye)
# condition_info: HEK293/TRPML1-PM clone A5 cells; 4-parameter logistic fit; read-out: TRPML1 calcium flux (FLIPR) dose response: EC50
Field: EC50. Provide a value for each of the molecules that follow.

The molecule identified as "CN(C)CCN(C)c1ccccc1NS(=O)(=O)c1ccc(S(=O)(=O)N(C)C)cc1" registered its EC50 at > 10 µM

The molecule identified as "CN(CCC1COC1)c1ccccc1NS(=O)(=O)c1ccc(S(=O)(=O)N(C)C)cc1" registered its EC50 at > 30 µM

The molecule identified as "CCOCCCN(C)c1ccccc1NS(=O)(=O)c1ccc(S(=O)(=O)N(C)C)cc1" registered its EC50 at > 10 µM

The molecule identified as "CCn1cnc(CN(C)c2ccccc2NS(=O)(=O)c2ccc(S(=O)(=O)N(C)C)cc2)c1" registered its EC50 at > 10 µM

Values compiled from patent US20250340510A1.
